Recorded values, source the supplement of paper PMC9170038.

Listed below: apparent KD of MS2 coat protein values for each entry.
- System: MS2 coat protein
- EXPERIMENTAL DETAILS: apparent KD of MS2 coat protein, switch ON state; designed switch direction (-1 OFF switch, 1 ON switch): 1; higher = weaker reporter binding
- SETUP CONDITIONS: FMN input: 0 or 200 uM; Eterna round: R93 (includes R88 designs)
Numbers only; they are read as µM.

// below: answered sequences
1) GAAAAACAUGAGGAUCACCCAUGUGAGAAUAUGGGAGGAUAUACGAAGACGAGAGUCAAAGUAGAAGGCCUAAAAG [Mat - Same State 1 - Eli mod - 30] = 0.0272
2) AAAAAAAAAACGCAGGAUAUCCAAAAAAAAACAUGAGGAUCACCCAUGUAAAAAAAAAAAAAAUGGGAGAAGGGUGAAAAAAAAAA [Louisiana 6 - Jieux - Same State 2] = 0.0499
3) AUAAAACAUGAGGAUCACCCAUGUAGAAAUAUGGGAGGAUAUACGAGGACGAAAGUCAAAGUAGAAGGCCUAAAAG [Mat - Same State 1 - Meechl mod - D120] = 0.0227
4) CUUUCCGCGCUAUAGGAUAUGAAUGAACCUACAUGAGGAUCACCCAUGUCGAACUCGGUCCAAAAUCAGAAGGAUGGCGAGGCGC [Oratis] = 0.119

Noted for AAAUAAAUGACUAAGGAUAUAUCAUAAGAAACAUGAGGAUCACCCAUGUAAUAAUAAAAAGGGUGAUAGAAGGUAGUCAACAAAC [74%, More Paria 4] : its apparent KD of MS2 coat protein reads 0.0198

Noted for AGAAAUAAAACACAGGAUAUCCAAAAUAAAACAUGAGGAUCACCCAUGUAAAGAAAAGAAAAAUGGGAGAAGGGUGAAAAUAAGA [Mat - Same State 2 - JL mod - D19] : its apparent KD of MS2 coat protein reads 0.0194
